meta.source: ChEMBL document CHEMBL1148750

- assayed-target: Angiopoietin-1 receptor (Homo sapiens)
- Sequence (Q02763 23-1124 limits assumed): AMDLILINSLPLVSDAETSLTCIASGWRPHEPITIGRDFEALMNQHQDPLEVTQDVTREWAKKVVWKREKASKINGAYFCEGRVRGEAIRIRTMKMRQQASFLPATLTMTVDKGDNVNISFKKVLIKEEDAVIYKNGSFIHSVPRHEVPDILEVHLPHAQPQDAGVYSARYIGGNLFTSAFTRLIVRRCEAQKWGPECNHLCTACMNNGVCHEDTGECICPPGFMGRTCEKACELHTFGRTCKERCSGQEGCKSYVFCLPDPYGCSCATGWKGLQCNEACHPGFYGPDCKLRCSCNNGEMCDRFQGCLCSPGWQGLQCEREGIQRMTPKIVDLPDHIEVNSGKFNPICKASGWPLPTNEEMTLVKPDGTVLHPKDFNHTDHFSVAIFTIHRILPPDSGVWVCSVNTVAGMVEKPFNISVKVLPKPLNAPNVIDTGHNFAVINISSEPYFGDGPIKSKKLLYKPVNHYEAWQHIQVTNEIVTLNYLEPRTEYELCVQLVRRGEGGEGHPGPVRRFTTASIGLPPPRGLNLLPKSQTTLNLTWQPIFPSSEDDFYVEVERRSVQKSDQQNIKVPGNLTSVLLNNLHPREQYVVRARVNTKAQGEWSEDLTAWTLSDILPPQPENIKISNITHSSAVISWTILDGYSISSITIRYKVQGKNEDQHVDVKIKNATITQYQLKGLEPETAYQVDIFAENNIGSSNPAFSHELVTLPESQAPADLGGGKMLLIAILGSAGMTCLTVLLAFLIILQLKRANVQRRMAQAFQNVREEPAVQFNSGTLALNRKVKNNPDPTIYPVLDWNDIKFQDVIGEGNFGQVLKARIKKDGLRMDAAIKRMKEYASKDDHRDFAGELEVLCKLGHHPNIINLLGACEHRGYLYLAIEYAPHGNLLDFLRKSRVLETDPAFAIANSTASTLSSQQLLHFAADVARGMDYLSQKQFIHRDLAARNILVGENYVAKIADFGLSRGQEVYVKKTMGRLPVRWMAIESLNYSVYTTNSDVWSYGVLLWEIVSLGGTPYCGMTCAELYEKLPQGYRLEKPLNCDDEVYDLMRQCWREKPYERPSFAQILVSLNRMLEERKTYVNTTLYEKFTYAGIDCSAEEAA
- method-notes: Inhibition of TIE-2/c-fms chimeric protein expressed in mouse 3T3 cells assessed as autophosphorylation level by ELISA
- Format: cell-based
- condition-set: nih3t3
Binarize IC50 at 20 nM; below is 1, at or above is 0.

Query :: # strict comparison: is reported IC50 < 20 nM? input = CN1CCN(CC(=O)Nc2nc3ccc(Oc4ccc(NC(=O)Nc5cc(C(F)(F)F)ccc5F)cc4)cc3[nH]2)CC1
Result :: 1

Query :: Same question for COC(=O)Nc1nc2ccc([S+]([O-])c3ccc(NC(=O)Nc4cc(C(F)(F)F)ccc4F)cc3)cc2[nH]1 (stereo not drawn) please.
Result :: 0

Query :: One more compound: COC(=O)Nc1nc2ccc(Oc3ccc(NC(=O)Nc4cc(C(F)(F)F)ccc4F)cc3)cc2o1
Result :: 1

Query :: Can you handle COCCOCC(=O)Nc1nc2ccc(Oc3ccc(NC(=O)Nc4cc(C(F)(F)F)ccc4F)cc3)cc2[nH]1 next?
Result :: 1

Query :: Another compound to look at: COC(=O)Nc1nc2ccc(S(=O)(=O)c3ccc(NC(=O)Nc4cc(C(F)(F)F)ccc4F)cc3)cc2[nH]1
Result :: 0

Query :: Note, next up: COC(=O)Nc1nc2ccc(Oc3ccc(NC(=O)Nc4cc(C(F)(F)F)ccc4F)cc3)cc2n1C
Result :: 0

Query :: What do you have for COC(=O)Nc1nc2ccc(Oc3ccc(NC(=O)Nc4cccc(SC(F)(F)F)c4)cc3)cc2[nH]1 ?
Result :: 0

Query :: // repeat for COC(=O)Nc1nc2ccc(Oc3ccc(NC(=O)Nc4cc(C(F)(F)F)ccc4F)cc3)cc2s1 and report
Result :: 1

Query :: And then COC(=O)Nc1nc2nc(Oc3ccc(NC(=O)Nc4cc(C(F)(F)F)ccc4F)cc3)ccc2[nH]1 , what is it?
Result :: 1

Query :: Queued: COC(=O)Nc1nc2cc(Oc3ccc(NC(=O)Nc4cc(C(F)(F)F)ccc4Cl)cc3)ccc2[nH]1
Result :: 1

Query :: Also CCc1cccc(NC(=O)Nc2ccc(Oc3ccc4nc(NC(=O)OC)[nH]c4c3)cc2)c1 [GW673715X] ?
Result :: 0

Query :: Next entry: Nc1nc2ccc(Oc3ccc(NC(=O)Nc4cc(C(F)(F)F)ccc4F)cc3)cc2[nH]1
Result :: 0

Query :: Next entry: COC(=O)Nc1nc2cc(Oc3ccc(NC(=O)Nc4cc(C(F)(F)F)ccc4F)cn3)ccc2[nH]1
Result :: 0

Query :: What do you have for COC(=O)Nc1nc2ccc(Oc3ccc(NC(=S)Nc4cccc(C(F)(F)F)c4)cc3)cc2[nH]1 ?
Result :: 0

Query :: Then COC(=O)Nc1nc2cc(Oc3cccc(NC(=O)Nc4cc(C(F)(F)F)ccc4F)c3)ccc2[nH]1 ?
Result :: 0

Query :: Try this compound too: O=C(Nc1ccc(Oc2ccc3[nH]c(NC(=O)c4ccccc4)nc3c2)cc1)Nc1cc(C(F)(F)F)ccc1F
Result :: 0

Query :: Similarly, COC(=O)Nc1nc2cc(Oc3ccc(NC(=O)Nc4cccc(Br)c4)cc3)ccc2[nH]1 ?
Result :: 1

Query :: Same thing, different compound: COC(=O)Nc1nc2ccc(Oc3ccc(NC(=O)Nc4cccc(Cl)c4)cc3)cc2[nH]1
Result :: 0

Query :: Same thing, different compound: COC(=O)Nc1nc2ccc(Oc3ccc(NC(=O)Nc4cccc(C(F)(F)F)c4)cc3)cc2[nH]1
Result :: 1

Query :: Proceed to COC(=O)Nc1nc2cc(Oc3ccc(NC(=O)Nc4cccc(SC)c4)cc3)ccc2[nH]1
Result :: 0

Query :: What do you get for COC(=O)Nc1nc2cc(Oc3ccc(NC(=O)Nc4cc(F)ccc4F)cc3)ccc2[nH]1 ?
Result :: 0

Query :: Repeat for the following compound: COC(=O)Nc1nc2ccc(Oc3ccc(NC(=O)Nc4cc(C(F)(F)F)ccc4F)c[n+]3[O-])cc2[nH]1
Result :: 0
